# Target: thrombin (Homo sapiens)
# Protocol Notes: Determination of the thrombin-inhibitory activity in plasma samples (ecarin-activated)
# Assay type: biochemical
# Condition Info: citrate plasma, ecarin activation, fluorogenic thrombin substrate; in some cases means of individual determinations
Exercise: for every item that follows, state its recorded pIC50.
Give bare numbers, as −log10 of the molar value.

Compound: [2H]C([2H])(C)O[C@@H]1CC(CO)N(C(=O)c2cc(OC)c3oc(NC(C)c4cc(Cl)ccn4)nc3c2)C1 (stereo partly drawn)
pIC50: 7.57
--
Compound: COc1cc(C(=O)N2CC(C)(C)OCC2(C)CO)cc2nc(NCc3cc(Cl)ccn3)oc12 (single isomer, unassigned) [Example 39]
pIC50: 7.40

Let us examine a further case.
[Q] I would be grateful if you could share the reported pIC50 for COc1cc(C(=O)N2CC(C)OCC2C2CC(O)C2)cc2nc(NCc3cc(Cl)ccn3)oc12 (single isomer, unassigned) [Example 52] .
[A] 7.47

* * *

Exercise: for every item that follows, state its recorded IC50.
# Target: thrombin (Homo sapiens, UniProt P00734)
# Protocol Notes: Determination of the thrombin-inhibitory activity in plasma samples (ecarin-activated)
# Format: biochemical
# Condition Info: citrate plasma, ecarin activation, fluorogenic thrombin substrate; in some cases means of individual determinations
Numbers only, in nM.

Below are worked cases with known answers.
Compound: COc1cc(C(=O)N2CC(C)OCC2CC(C)O)cc2nc(NCc3cc(Cl)ccn3)oc12 (single isomer, unassigned)
Target: thrombin (Homo sapiens, UniProt P00734)
Recorded Value: 38
--
Compound: COc1cc(C(=O)N2CC(C)CCC2CCO)cc2nc(NCc3cc(Cl)ccn3)oc12 (single isomer, unassigned)
Target: thrombin (Homo sapiens, UniProt P00734)
Recorded Value: 47
--
Compound: COc1cc(C(=O)N2CC(C)OCC2CC(C)(C)O)cc2nc(NCc3cc(Cl)ccn3)oc12 (single isomer, unassigned) [Example 56]
Target: thrombin (Homo sapiens, UniProt P00734)
Recorded Value: 57
--
Compound: COc1cc(C(=O)N2CC(C)OCC2C2CC(O)C2)cc2nc(NCc3cc(Cl)ccn3)oc12 (single isomer, unassigned) [Example 50]
Target: thrombin (Homo sapiens, UniProt P00734)
Recorded Value: 28
--
Compound: CCC1C(=O)NC2(CC2)CN1C(=O)c1cc(OC)c2oc(NCc3cc(Cl)ccn3)nc2c1 (racemic) [Example 78]
Target: thrombin (Homo sapiens, UniProt P00734)
Recorded Value: 19

Could you tell me IC50 for each of these compounds? They are listed below.
1. COc1cc(C(=O)N2CC(C)CCC2C2(O)CC2)cc2nc(NCc3cc(Cl)ccn3)oc12 (single isomer, unassigned) [Example 90]
2. CCC1C(=O)NC(C)CN1C(=O)c1cc(OC)c2oc(NCc3cc(Cl)ccn3)nc2c1 (single isomer, unassigned) [Example 81]

[A]
94
32

Could you tell me IC50 for each of these compounds? They are listed below.
1. COc1cc(C(=O)N2CC(C)(C)OCC2(C)CO)cc2nc(NCc3cc(Cl)ccn3)oc12 (racemic) [Example 38]
2. COc1cc(C(=O)N2CC(C)(CC(C)O)OC[C@H]2C)cc2nc(NC(C)c3cc(Cl)ccn3)oc12 (some centres unmarked) [Example 26]
3. COc1cc(C(=O)N2CC(C)(C)OCC2C(C)(C)O)cc2nc(NCc3cc(Cl)ccn3)oc12 (single isomer, unassigned)
4. COc1cc(C(=O)N2CCCC2(C)C(=O)N2CC(F)(F)C2)cc2nc(NCc3cc(Cl)ccn3)oc12 (single isomer, unassigned)
5. COc1cc(C(=O)N2CC(C)OCC2C2CC(O)C2)cc2nc(NCc3cc(Cl)ccn3)oc12 (centres unmarked) [Example 46]
6. COc1cc(C(=O)N2CC(C)CCC2CC2(O)CC2)cc2nc(NCc3cc(Cl)ccn3)oc12 (centres unmarked)
7. COc1cc(C(=O)N2CC(C)(CCO)OCC2C(F)F)cc2nc(NCc3cc(Cl)ccn3)oc12 (centres unmarked)

[A]
1: 22; 2: 44; 3: 17; 4: 36; 5: 23; 6: 27; 7: 35

* * *

# Target: thrombin (Homo sapiens, UniProt P00734)
# Protocol Notes: Determination of the thrombin-inhibitory activity in plasma samples (ecarin-activated)
# Format: biochemical
# Condition Info: citrate plasma, ecarin activation, fluorogenic thrombin substrate; in some cases means of individual determinations
Measured Endpoint: pIC50
One number for each entry, as −log10 of the molar value.

Compound: COc1cc(C(=O)N2CC(C)(CCO)OCC2CF)cc2nc(NCc3cc(Cl)ccn3)oc12 (stereo not drawn)
Measured Endpoint: pIC50
Recorded Value: 7.26
--
Compound: COc1cc(C(=O)N2C[C@H](OC3CC3)C[C@H]2CO)cc2nc(NC(C)c3cc(Cl)ccn3)oc12 (single isomer, unassigned) [Example 15]
Measured Endpoint: pIC50
Recorded Value: 7.68

Let us examine a further case.
[Q] I would be grateful if you could share the reported pIC50 for COc1cc(C(=O)N2CC(C)CCC2C2(O)CC2)cc2nc(NCc3cc(Cl)ccn3)oc12 (single isomer, unassigned) [Example 89] .
[A] 7.46
